Target: T1, purified ALK protein (BLitz, Table 20) (Homo sapiens (Human), UniProt Q9UM73 19-1038, limits assumed)
T1 construct: also called purified ALK proteins
T1 sequence (Q9UM73 19-1038 limits assumed): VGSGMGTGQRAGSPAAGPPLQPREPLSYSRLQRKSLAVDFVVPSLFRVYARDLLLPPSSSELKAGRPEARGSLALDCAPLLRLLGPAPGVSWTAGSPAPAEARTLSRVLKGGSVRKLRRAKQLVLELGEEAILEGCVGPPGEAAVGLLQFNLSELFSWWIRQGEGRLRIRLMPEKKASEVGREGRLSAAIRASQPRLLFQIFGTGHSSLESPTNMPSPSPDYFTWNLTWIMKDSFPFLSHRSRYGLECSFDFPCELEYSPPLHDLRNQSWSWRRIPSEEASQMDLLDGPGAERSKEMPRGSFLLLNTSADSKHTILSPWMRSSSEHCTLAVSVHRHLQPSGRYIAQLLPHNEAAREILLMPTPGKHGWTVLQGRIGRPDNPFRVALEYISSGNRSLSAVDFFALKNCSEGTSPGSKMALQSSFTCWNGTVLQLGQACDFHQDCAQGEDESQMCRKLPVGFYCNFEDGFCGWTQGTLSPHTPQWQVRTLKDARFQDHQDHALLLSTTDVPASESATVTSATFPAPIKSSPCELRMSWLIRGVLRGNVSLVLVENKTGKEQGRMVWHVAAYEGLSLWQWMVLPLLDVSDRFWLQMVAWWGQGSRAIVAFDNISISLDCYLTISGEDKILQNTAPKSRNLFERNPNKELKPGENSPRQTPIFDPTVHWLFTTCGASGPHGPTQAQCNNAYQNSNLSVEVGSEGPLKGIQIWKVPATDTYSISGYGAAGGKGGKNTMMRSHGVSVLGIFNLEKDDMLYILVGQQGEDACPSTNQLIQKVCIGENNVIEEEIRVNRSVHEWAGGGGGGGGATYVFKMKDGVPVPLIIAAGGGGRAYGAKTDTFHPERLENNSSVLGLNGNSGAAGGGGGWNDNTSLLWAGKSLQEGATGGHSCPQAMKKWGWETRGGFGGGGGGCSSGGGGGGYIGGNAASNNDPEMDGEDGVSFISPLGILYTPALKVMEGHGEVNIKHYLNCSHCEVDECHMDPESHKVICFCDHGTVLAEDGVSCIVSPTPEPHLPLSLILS
Test: BLI (BLitz), mAb on Protein A tip, purified ALK in solution
// boundary case: Kd equal to 200 nM maps to Not satisfied; strictly smaller maps to Satisfied

INSERT INTO results (binder, assigned_label) VALUES
  ('Ab394 (antibody, V domains shown, humanized) VH: EVQLVQSGAEVKKPGASVKLSCKASGYTFTSYWMHWVRQAPGQGLEWIGYIKPSSGYTKYAQKLQGRVTLTADKSTSTAYMELRSLRSDDTAVYYCARDYYGSSSWFAYWGQGTLVTVSS VL: EIVMTQSPATLSTSPGERATLSCKASQNVGTNVAWYQQKPGQAPRALIYSASYRYSGVPARFSGSGSGTDFTLTISSVEPEDFAVYYCQQYNSYPYMYTFGQGTKLEIK', 'Satisfied'),
  ('Ab430 (antibody, V domains shown, humanized) VH: EVQLVQSGAEVKKPGASVKLSCKASGYTFTSYWMHWVRQAPGQGLEWIGYIKPSSGYTKYAQKLQGRVTLTADKSTSTAYMELRSLRSDDTAVYYCARDYYGSSSWFAYWGQGTLVTVSS VL: EIVMTQSPATLSTSPGERATLSCRASQSVSSNLAWYQQKPGQAPRALIYSASYRYSGVPARFSGSGSGTDFTLTISSVEPEDFAVYYCQQYNSYPYMYTFGQGTKLEIK', 'Not satisfied'),
  ('Ab374 (antibody, V domains shown, humanized) VH: EVQLVQSGAEVKKPGSSVKLSCKASGYTFSSYWMHWVKQAPGQGLEWIGYIKPSSGYTKYAQKFQGRVTLTADKSTSTAYMELSSLRSEDTAVYYCARDYYGSSSWFAYWGQGTLVTVSS VL: DIVMTQSQAFMSVTVGEKVTITCKASQNVGTNVAWYQQKPDQAPKALIYSASYRYSGVPSRFSGSGSGTDFTLTISSLEAEDAATYYCQQYNSYPYMYTFGQGTKLEIK', 'Not satisfied');

Q: Is it true that Kd reported for Ab376 (antibody, V domains shown, humanized) VH: EVQLVQSGPEVKKPGTSVKLSCKASGYTFTSYWMHWVRQARGQRLEWIGYIKPSSGYTKYNQKFKDRATLTADKSTSTAYMELSSLRSEDTAVYYCARDYYGSSSWFAYWGQGTLVTVSS VL: EIVMTQSPAFMSVTVGEKVTITCKASQNVGTNVAWYQQKPDQSPKALIYSASYRYSGVPSRFSGSGSGTDFTLTISSLEAEDAATYYCQQYNSYPYMYTFGQGTKLEIK is less than 200 nM?
Result: Satisfied

Q: Is it true that Kd reported for Ab441 (antibody, V domains shown, humanized) VH: EVQLVQSGAEVAKPGASVKLSCKASGYTFTSYWMHWVRQAPGQGLEWIGYIKPSSGYTKYNQKFKDKATLTADKSTSTAYMELRSLRSDDTAVYYCARDYYGSSSWFAYWGQGTLVTVSS VL: EIVMTQSQATMSTSVGERATLSCKASQNVGTNVAWYQQKPGQSPKALIYGASTRATGVPARFSGSGSGTDFTLTISSVEPEDFAVYYCQQYNSYPYMYTFGQGTKLEIK is less than 200 nM?
Result: Satisfied
